All figures here come from BindingDB's records for doi:10.1021/jm00079a004.

Answer each item with its documented pKi.
# measured-target: Sigma non-opioid intracellular receptor 1 (Cavia porcellus)
# procedure-details: Displacement of [3H]-(+) -3PPP from sigma receptor in guinea pig brain membranes
Scale explanation: pKi corresponds to minus log10 of a concentration expressed in moles per litre.

So what's the measured pKi for this one? CN(CCc1ccc2ccccc2c1)CCN1CCCC1
8.68

Queued: CN(CCc1ccccc1)CCN1CCCC1
8.13

Queued: CN(CCN1CCCC1)Cc1ccc(Cl)c(Cl)c1
9.42

Queued: CCN(CCc1ccc(Cl)c(Cl)c1)CCN1CCCC1
9.29

Queued: CN(C)CCNCCc1ccc(Cl)c(Cl)c1
7.70

Queued: CN(CCc1ccc(Cl)cc1)CCN1CCCC1
8.82
